Test: Inhibition of recombinant human Cx26 expressed in Escherichia coli LB2003 assessed as reduction in cell growth measured after 18 hrs
pIC50: −log10 of the molar value.
Let's look at some compounds and their measured pIC50.

COMPOUND STRUCTURE STRING	pIC50
NC[C@H]1O[C@H](O[C@H]2[C@H](O)[C@@H](O[C@@H]3O[C@H](COCc4ccc(F)cc4)[C@@H](OCc4ccc(F)cc4)[C@H](N)[C@H]3O)[C@H](N)C[C@@H]2N)[C@H](O)[C@@H](O)[C@@H]1O	5.09
CCCCCCO[C@H]1[C@H](N)[C@@H](O)[C@H](O[C@@H]2[C@@H](O)[C@H](O[C@H]3O[C@H](CN)[C@@H](O)[C@H](O)[C@H]3O)[C@@H](N)C[C@H]2N)O[C@@H]1CO	4.87
NC[C@H]1O[C@H](O[C@H]2[C@H](O)[C@@H](O[C@@H]3O[C@H](COCc4cccc(-c5ccccc5)c4)[C@@H](OCc4cccc(-c5ccccc5)c4)[C@H](N)[C@H]3O)[C@H](N)C[C@@H]2N)[C@H](O)[C@@H](O)[C@@H]1O	5.21
NC[C@H]1O[C@H](O[C@H]2[C@H](O)[C@@H](O[C@@H]3O[C@H](COCc4ccc5ccccc5c4)[C@@H](OCc4ccc5ccccc5c4)[C@H](N)[C@H]3O)[C@H](N)C[C@@H]2N)[C@H](O)[C@@H](O)[C@@H]1O	5.31
NC[C@H]1O[C@H](O[C@H]2[C@H](O)[C@@H](O[C@@H]3O[C@H](COCc4cccc5ccccc45)[C@@H](OCc4cccc5ccccc45)[C@H](N)[C@H]3O)[C@H](N)C[C@@H]2N)[C@H](O)[C@@H](O)[C@@H]1O	5.18

###

Assay: Inhibition of recombinant human Cx26 expressed in Escherichia coli LB2003 assessed as reduction in cell growth measured after 18 hrs
REPORTED ENDPOINT: IC50

COMPOUND STRUCTURE STRING	TEST VALUE
CCCCOC[C@H]1O[C@@H](O[C@@H]2[C@@H](O)[C@H](O[C@H]3O[C@H](CN)[C@@H](O)[C@H](O)[C@H]3O)[C@@H](N)C[C@H]2N)[C@H](O)[C@@H](N)[C@@H]1OCCCC	19 µM
CCCCCCCCCOC[C@H]1O[C@@H](O[C@@H]2[C@@H](O)[C@H](O[C@H]3O[C@H](CN)[C@@H](O)[C@H](O)[C@H]3O)[C@@H](N)C[C@H]2N)[C@H](O)[C@@H](N)[C@@H]1OCCCCCCCCC	18.8 µM
CCCCCCOC[C@H]1O[C@@H](O[C@@H]2[C@@H](O)[C@H](O[C@H]3O[C@H](CN)[C@@H](O)[C@H](O)[C@H]3O)[C@@H](N)C[C@H]2N)[C@H](O)[C@@H](N)[C@@H]1OCCCCCC	6.2 µM
CCCCCCCCOC[C@H]1O[C@@H](O[C@@H]2[C@@H](O)[C@H](O[C@H]3O[C@H](CN)[C@@H](O)[C@H](O)[C@H]3O)[C@@H](N)C[C@H]2N)[C@H](O)[C@@H](N)[C@@H]1OCCCCCCCC	13.6 µM
COc1ccc(COC[C@H]2O[C@@H](O[C@@H]3[C@@H](O)[C@H](O[C@H]4O[C@H](CN)[C@@H](O)[C@H](O)[C@H]4O)[C@@H](N)C[C@H]3N)[C@H](O)[C@@H](N)[C@@H]2OCc2ccc(OC)cc2)cc1	13 µM

###

Let's look at some compounds and their measured pIC50.
Assay: Inhibition of recombinant human Cx26 expressed in Escherichia coli LB2003 assessed as reduction in cell growth measured after 18 hrs
pIC50: −log10 of the molar value.
REPORTED ENDPOINT: pIC50

COMPOUND STRUCTURE STRING	REPORTED ENDPOINT	TEST VALUE
Cc1ccc(COC[C@H]2O[C@@H](O[C@@H]3[C@@H](O)[C@H](O[C@H]4O[C@H](CN)[C@@H](O)[C@H](O)[C@H]4O)[C@@H](N)C[C@H]3N)[C@H](O)[C@@H](N)[C@@H]2OCc2ccc(C)cc2)cc1	pIC50	5.37
NC[C@H]1O[C@H](O[C@H]2[C@H](O)[C@@H](O[C@@H]3O[C@H](COCc4ccc(Cl)cc4)[C@@H](OCc4ccc(Cl)cc4)[C@H](N)[C@H]3O)[C@H](N)C[C@@H]2N)[C@H](O)[C@@H](O)[C@@H]1O	pIC50	5.60
CO[C@@H]1[C@@H](O[C@@H]2O[C@H](COCc3ccccc3)[C@@H](OCc3ccccc3)[C@H](N)[C@H]2OC)[C@H](N)C[C@H](N)[C@H]1O[C@H]1O[C@H](CN)[C@@H](OC)[C@H](OC)[C@H]1OC	pIC50	5.08
